tested on: ANGPTL3 gene; test: ANGPTL3 gRNA/SpCas9 editing in primary human hepatocytes (Table 3); assay type: cell-based
Give Human Primary Hepatocyte Editing % 100 ng/ml for every item shown.
Your answer should be a plain number; it is taken to be in %.

Query (molecule): GA143: ANGPTL3 gRNA; protospacer TTAATTCAACATCGAATAGA (SEQ ID NO: 141) (nucleic acid, 2'-O-methyl at 1, 2, other sugars, backbone and T or U not given here; further chemistry not fully specified) guide: UUAATTCAACATCGAATAGAGTTTTAGAGCTAGAAATAGCAAGTTAAAATAAGGCTAGTCCGTTATCAACTTGAAAAAGTGGCACCGAGTCGGTGCTTTT ; field requested: Human Primary Hepatocyte Editing % 100 ng/ml 9.30

Query (molecule): GA111: ANGPTL3 gRNA; protospacer GCCAATGGCCTCCTTCAGTT (SEQ ID NO: 109) (nucleic acid, 2'-O-methyl at 1, 2, other sugars and backbone not given here; further chemistry not fully specified) guide: GCCAATGGCCTCCTTCAGTTGTTTTAGAGCTAGAAATAGCAAGTTAAAATAAGGCTAGTCCGTTATCAACTTGAAAAAGTGGCACCGAGTCGGTGCTTTT ; field requested: Human Primary Hepatocyte Editing % 100 ng/ml 10.72
